meta.source: paper PMC3035770

- TARGET_DESC: PKR (double-stranded RNA-activated protein kinase) (Homo sapiens, UniProt P19525)
- Sequence (P19525 2-551): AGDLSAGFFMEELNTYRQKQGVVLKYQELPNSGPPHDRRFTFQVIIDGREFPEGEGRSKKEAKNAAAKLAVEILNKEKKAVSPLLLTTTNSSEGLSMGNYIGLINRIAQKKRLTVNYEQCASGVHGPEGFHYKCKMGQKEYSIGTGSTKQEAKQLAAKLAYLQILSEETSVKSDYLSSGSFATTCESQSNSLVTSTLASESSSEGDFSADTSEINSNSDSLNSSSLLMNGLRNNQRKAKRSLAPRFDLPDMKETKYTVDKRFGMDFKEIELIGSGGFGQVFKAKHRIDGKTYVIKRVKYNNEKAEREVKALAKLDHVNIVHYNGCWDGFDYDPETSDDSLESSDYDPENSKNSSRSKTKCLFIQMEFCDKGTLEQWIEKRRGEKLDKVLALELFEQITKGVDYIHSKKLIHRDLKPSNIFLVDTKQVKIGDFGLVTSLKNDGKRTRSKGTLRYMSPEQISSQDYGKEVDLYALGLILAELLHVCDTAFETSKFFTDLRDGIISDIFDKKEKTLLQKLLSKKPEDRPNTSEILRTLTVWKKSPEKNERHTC
- ASSAY_OVERVIEW: fluorescence polarization, direct titration
PARAMETER: Kd (nM)
Record the value in nM, omitting the unit from your answer.

The compound listed as CC1=CC(C)=[N+]2C1=Cc1ccc(CCCCCCCCCCCCCCCC(=O)O)n1[B-]2(F)F shows Kd equal to 23.2
